- Test system: Staphylococcus aureus CMX 553
- assay.text: in vitro antibacterial activity, agar dilution MIC
- Format: cell-based
- conditions.used: organism code FF, BHI agar, 35-37 °C, 20 to 24 hours
Listing of recorded minimum inhibitory concentration (MIC) by entry.
test.readout: minimum inhibitory concentration (MIC)

>>> numeric_result("CC[C@H]1OC(=O)[C@H](C)[C@@H](O[C@H]2C[C@@](C)(OC)[C@@H](O)[C@H](C)O2)[C@H](C)[C@@H](O[C@@H]2O[C@H](C)C[C@H](N(C)C)[C@H]2O)[C@](C)(O)C[C@@H](C)C(=O)[C@H](C)[C@@H](O)[C@]1(C)O [Ery. A, Erythromycin A, reference compound]")
0.39
>>> numeric_result("CC[C@H]1OC(=O)[C@H](C)[C@@H](O[C@H]2C[C@@](C)(OC)[C@@H](O)[C@H](C)O2)[C@H](C)[C@@H](O[C@@H]2O[C@H](C)C[C@H](N(C)C)[C@H]2O)[C@@]2(C)C[C@@H](C)C(=O)[C@H](C)[C@H]3N(CCCCO2)C(=O)O[C@]13C")
0.39

====

Reported minimum inhibitory concentration (MIC) values for a set of compounds
- Tested on: Escherichia coli SS
- assay.text: in vitro antibacterial activity, agar dilution MIC
- Assay type: cell-based
- conditions.used: organism code RR, BHI agar, 35-37 °C, 20 to 24 hours
test.readout: minimum inhibitory concentration (MIC)

>>> numeric_result("CC[C@H]1OC(=O)[C@H](C)[C@@H](O[C@H]2C[C@@](C)(OC)[C@@H](O)[C@H](C)O2)[C@H](C)[C@@H](O[C@@H]2O[C@H](C)C[C@H](N(C)C)[C@H]2O)[C@@]2(C)C[C@@H](C)C(=O)[C@H](C)[C@H]3N(CCNCc4cccc(c4)C=CCO2)C(=O)O[C@]13C")
6.2
>>> numeric_result("CC[C@H]1OC(=O)[C@H](C)[C@@H](O[C@H]2C[C@@](C)(OC)[C@@H](O)[C@H](C)O2)[C@H](C)[C@@H](O[C@@H]2O[C@H](C)C[C@H](N(C)C)[C@H]2O)[C@@]2(C)C[C@@H](C)C(=O)[C@H](C)[C@H]3N(CCCCO2)C(=O)O[C@]13C")
3.1
>>> numeric_result("CC[C@H]1OC(=O)[C@H](C)[C@@H](O[C@H]2C[C@@](C)(OC)[C@@H](O)[C@H](C)O2)[C@H](C)[C@@H](O[C@@H]2O[C@H](C)C[C@H](N(C)C)[C@H]2O)[C@](C)(O)C[C@@H](C)C(=O)[C@H](C)[C@@H](O)[C@]1(C)O [Ery. A, Erythromycin A, reference compound]")
0.78
>>> numeric_result("CC[C@H]1OC(=O)[C@H](C)[C@@H](O[C@H]2C[C@@](C)(OC)[C@@H](O)[C@H](C)O2)[C@H](C)[C@@H](O[C@@H]2O[C@H](C)C[C@H](N(C)C)[C@H]2O)[C@@]2(C)C[C@@H](C)C(=O)[C@H](C)[C@H]3N(CC(O)CC=CCO2)C(=O)O[C@]13C (some centres unmarked)")
0.78
>>> numeric_result("CC[C@H]1OC(=O)[C@H](C)C(=O)[C@H](C)[C@@H](O[C@@H]2O[C@H](C)C[C@H](N(C)C)[C@H]2O)[C@@]2(C)C[C@@H](C)C(=O)[C@H](C)[C@H]3N(CC=CCO2)C(=O)O[C@]13C")
0.78
>>> numeric_result("CC[C@H]1OC(=O)[C@H](C)C(=O)[C@H](C)[C@@H](O[C@@H]2O[C@H](C)C[C@H](N(C)C)[C@H]2O)[C@@]2(C)C[C@@H](C)C(=O)[C@H](C)[C@H]3N(CCC=CCO2)C(=O)O[C@]13C")
1.56
>>> numeric_result("CC[C@H]1OC(=O)[C@H](C)C(=O)[C@H](C)[C@@H](O[C@@H]2O[C@H](C)C[C@H](N(C)C)[C@H]2O)[C@@]2(C)C[C@@H](C)C(=O)[C@H](C)[C@H]3N(CCOCc4ccccc4C=CCO2)C(=O)O[C@]13C")
1.56
>>> numeric_result("CC[C@H]1OC(=O)[C@H](C)[C@@H](O[C@H]2C[C@@](C)(OC)[C@@H](O)[C@H](C)O2)[C@H](C)[C@@H](O[C@@H]2O[C@H](C)C[C@H](N(C)C)[C@H]2O)[C@@]2(C)C[C@@H](C)C(=O)[C@H](C)[C@H]3N(CCNC(=O)c4ccccc4C=CCO2)C(=O)O[C@]13C")
6.2

Hey, just so you know, these numbers are from patent EP1027361B1.
